biological target: BRAF G466V (Homo sapiens, UniProt P15056, G466V); construct: Horizon Discovery (HCT-116 BRAF−/− cells); host or cells: HCT-116 BRAF−/− cells, clone 8, lentiviral transduction; assay: BRAF HiBiT degradation assay, C-terminal HiBiT-tagged BRAF G466V overexpressed in HCT-116 BRAF−/− cells (clone 8), Nano-Glo HiBiT Lytic assay; format: cell-based; conditions: BRAF G466V (Class 3), HCT-116 BRAF−/− cells; DC50 at 50% degradation
Sequence (P15056 whole entry G466V): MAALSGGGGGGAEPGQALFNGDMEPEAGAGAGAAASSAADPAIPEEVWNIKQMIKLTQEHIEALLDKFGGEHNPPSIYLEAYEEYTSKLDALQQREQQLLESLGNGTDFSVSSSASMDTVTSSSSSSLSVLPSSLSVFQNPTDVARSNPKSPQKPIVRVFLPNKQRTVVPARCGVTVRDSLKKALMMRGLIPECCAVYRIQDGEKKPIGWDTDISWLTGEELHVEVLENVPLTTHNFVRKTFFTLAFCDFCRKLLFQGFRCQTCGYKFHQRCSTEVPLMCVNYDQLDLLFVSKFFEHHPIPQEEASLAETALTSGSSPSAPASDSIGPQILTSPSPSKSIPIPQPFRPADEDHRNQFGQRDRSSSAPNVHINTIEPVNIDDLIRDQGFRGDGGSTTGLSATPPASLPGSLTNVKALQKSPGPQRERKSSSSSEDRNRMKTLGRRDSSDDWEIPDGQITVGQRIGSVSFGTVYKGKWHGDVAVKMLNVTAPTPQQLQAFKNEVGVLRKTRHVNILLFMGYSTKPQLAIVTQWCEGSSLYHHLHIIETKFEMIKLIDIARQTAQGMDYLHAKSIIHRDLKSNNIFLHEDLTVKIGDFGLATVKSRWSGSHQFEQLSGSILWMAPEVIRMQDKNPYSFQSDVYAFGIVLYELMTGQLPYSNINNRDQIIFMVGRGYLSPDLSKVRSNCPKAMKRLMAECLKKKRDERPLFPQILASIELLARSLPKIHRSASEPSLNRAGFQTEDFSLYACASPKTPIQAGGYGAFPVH
test readout: DC50

Q) Give a short answer stating reported DC50 for CCCS(=O)(=O)Nc1cccc(-c2cn(-c3ccc(N4CCN(CC5CCN(c6ccc([C@H]7CCC(=O)NC7=O)cc6)CC5)[C@H](C)C4)cc3)nc2-c2ccncc2)c1F .
A) 10 to 50 nM

Q) Give a short answer stating reported DC50 for O=C1CC[C@H](c2ccc(N3CCC(CN4CCN(c5ccc(-n6cc(-c7cc(Cl)cc(NS(=O)(=O)N8CC[C@@H](F)C8)c7F)c(-c7ccncc7)n6)cc5)CC4)CC3)cc2)C(=O)N1 .
A) < 10 nM

Q) Give a short answer stating reported DC50 for O=C1CC[C@H](c2ccc(N3CCC(CN4CCN(c5ccc(-n6cc(-c7cc(F)cc(NS(=O)(=O)N8CCCC8)c7F)c(-c7ccncc7)n6)cc5)CC4)CC3)nc2)C(=O)N1 .
A) < 10 nM

Q) Give a short answer stating reported DC50 for O=C1CC[C@H](c2ccc(N3CCC(CN4CCN(c5ccc(-n6cc(-c7cc(Cl)cc(NS(=O)(=O)N8CCCC8)c7F)c(-c7ccncc7)n6)cc5)CC4)CC3)cc2F)C(=O)N1 .
A) < 10 nM

Q) Give a short answer stating reported DC50 for C[C@@H]1CN(c2ccc(-n3cc(-c4cc(Cl)cc(NS(=O)(=O)N5CC[C@@H](F)C5)c4F)c(-c4ccncc4)n3)cc2)CCN1CC1CCN(c2ccc(N3CCC(=O)NC3=O)cc2)CC1 .
A) < 10 nM
